# PROTOCOL_TEXT: NCI Yeast Anticancer Drug Screen. Data for the cln2 rad14 strain (AID 165);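 also: 0% = growth equal to vehicle treated cultures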
# APPLIED_CONDITIONS: S. cerevisiae cln2 rad14 strain, at 50.0 µM
# Description: Growth inhibition of yeast strains with defined genetic alterations is measured as a screen for potential anti-cancer activity. Selected strains with alterations in DNA damage repair or cell cycle control were exposed to compounds and growth inhibition was measured relative to vehicle treated controls. The strain used in this assay is cln2 rad14
The panel holds about 79,000 compounds, 15% with a hit somewhere; the sample as a whole holds those more often. The source made the active and inactive calls. Rule as the data show it: active = growth inhibition above about 70%; inactive = the rest.
Write down the outcome that applies. Available outcomes: true (1) (active), false (0) (inactive)

{"columns": ["MOLECULE", "ASSIGNED_CLASS"],
 "data": [
  ["Nc1cc(Cl)c2c(c1)Cc1ccccc1-2", "false (0)"],
  ["O=C(NCCl)Nc1ccccc1", "false (0)"],
  ["O=C(N/C(=C\\c1ccc(Br)cc1)c1nc2ccccc2[nH]1)c1ccccc1", "false (0)"]
]}

Check the results log: what was the call for O=C(/C=C/c1ccc([N+](=O)[O-])o1)N1CCN(Cc2ccccc2)CC1 ?
false (0)

Recorded call for CCc1cccc(CC)c1NC(=S)N/C=C(\C#N)C(=O)c1ccc2ccccc2c1 ?
false (0)

Hi, do you know how CSC(=S)/C(=C/Nc1ncccn1)c1ccccc1 came out in this test?
true (1)
